- PROTOCOL: in vitro
PARAMETER MEASURED: viability at 4 days, 100 µM

COMPOUND	REPORTED MEASUREMENT
CC/C(=C(\c1ccccc1)c1ccc(OCCN(C)C)cc1)c1ccccc1 [Tamoxifen, tamoxifen]	63%
